# tgt: dopamine D2s receptor (Homo sapiens, UniProt P14416)
# Construct: expressed in transfected cells; membranes used
# Sequence (P14416 1-414 isoform P14416-2): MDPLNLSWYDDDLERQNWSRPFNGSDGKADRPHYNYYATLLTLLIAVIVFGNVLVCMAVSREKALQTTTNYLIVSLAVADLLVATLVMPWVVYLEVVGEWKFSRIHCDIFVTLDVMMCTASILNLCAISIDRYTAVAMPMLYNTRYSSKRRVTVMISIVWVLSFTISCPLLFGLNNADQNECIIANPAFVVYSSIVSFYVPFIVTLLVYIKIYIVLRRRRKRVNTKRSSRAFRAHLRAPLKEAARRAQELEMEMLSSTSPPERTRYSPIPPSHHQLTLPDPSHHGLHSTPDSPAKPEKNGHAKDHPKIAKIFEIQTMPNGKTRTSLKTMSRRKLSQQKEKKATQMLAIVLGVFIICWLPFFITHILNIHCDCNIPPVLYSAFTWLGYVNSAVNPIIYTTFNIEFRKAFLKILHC
# test_protocol: D2 receptor binding assay (3H-raclopride displacement, membranes from D2s-transfected CHO cells)
# assay_context: w/NaCl; read-out: D2 binding w/NaCl Ki
assay_metric: Ki

> print(dat)
                                   compound                                       tgt  assay.metric   result
1     CN1CCN(C2=Nc3ccccc3Sc3ccc(Cl)cc32)CC1  dopamine D2s receptor (Homo sapiens, UniProt P14416)            Ki  0.49 nM
2        c1ccc2c(c1)N=C(N1CCNCC1)c1ccccc1S2  dopamine D2s receptor (Homo sapiens, UniProt P14416)            Ki    37 nM
3  Fc1ccc2c(c1)C(N1CCNCC1)=Nc1ccccc1S2 [Example 1]  dopamine D2s receptor (Homo sapiens, UniProt P14416)            Ki    11 nM
4      Clc1ccc2c(c1)C(N1CCNCC1)=Nc1ccccc1S2  dopamine D2s receptor (Homo sapiens, UniProt P14416)            Ki   0.7 nM
5      CN1CCN(C2=Nc3ccccc3Sc3ccc(F)cc32)CC1  dopamine D2s receptor (Homo sapiens, UniProt P14416)            Ki   1.1 nM
